# TARGET OR TEST SYSTEM: human 5HT1A receptor (Homo sapiens, UniProt P08908)
# Construct: purchased Perkin Elmer; host or cells: HEK293 cells, stably transfected (membranes)
# Sequence (P08908 1-422): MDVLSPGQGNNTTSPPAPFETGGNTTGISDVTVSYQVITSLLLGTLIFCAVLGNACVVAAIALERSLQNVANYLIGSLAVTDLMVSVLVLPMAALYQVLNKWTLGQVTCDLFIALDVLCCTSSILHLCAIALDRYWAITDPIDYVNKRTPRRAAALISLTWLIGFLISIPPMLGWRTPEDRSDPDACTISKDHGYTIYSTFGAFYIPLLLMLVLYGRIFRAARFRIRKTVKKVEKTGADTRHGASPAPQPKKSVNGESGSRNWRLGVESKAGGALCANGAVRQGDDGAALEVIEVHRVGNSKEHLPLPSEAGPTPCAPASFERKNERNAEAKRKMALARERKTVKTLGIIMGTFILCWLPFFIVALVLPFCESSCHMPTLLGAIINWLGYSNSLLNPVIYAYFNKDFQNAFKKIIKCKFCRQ
# TEST: Radioligand binding to the 5-HT1A receptor, [3H]8-OH-DPAT
# APPLIED CONDITIONS: Example 77; membranes of HEK293 cells, [3H]8-OH-DPAT 0.5 nM; <5 = not active at up to 10 μM; read-out: h5HT1A pIC50 (converted)
OBSERVABLE: IC50 (nM)
API: value field is a number in nM; no unit string.

Check out these entries, answers already filled in.
MOLECULE | OBSERVABLE | ASSAY VALUE
COC(=O)c1cc2c(OC[C@@H](O)CN3C[C@@H]4C/C=C\C[C@H]3CN4c3ccc4ccccc4c3)ccc(C)c2[nH]1 | IC50 | 363
O[C@H](COc1cccc2ncccc12)CN1C[C@@H]2C/C=C\C[C@H]1CN2c1ccc2ccccc2c1 | IC50 | 355
Cc1cc2c(OC[C@@H](O)CN3C[C@@H]4C/C=C\C[C@H]3CN4c3ccc4ccccc4c3)c(C)ccc2[nH]1 | IC50 | 724

input: Input Cc1cc2c(OC[C@@H](O)CN3C[C@@H]4C/C=C\C[C@H]3CN4c3ccc4c(c3)OCCO4)cccc2[nH]1 , output reported IC50.
output: 10.7

input: Input COC(=O)c1cc2c(OC[C@@H](O)CN3C[C@@H]4C/C=C\C[C@H]3CN4c3ccc4ccccc4c3)cccc2[nH]1 , output reported IC50.
output: 50.1

input: Input Cc1cc2c(OC[C@@H](O)CN3C[C@@H]4C/C=C\C[C@H]3CN4c3cnc4ccccc4c3)cccc2[nH]1 , output reported IC50.
output: 126

input: Input COC(=O)c1cc2c(OC[C@@H](O)CN3C[C@@H]4C/C=C\C[C@H]3CN4c3ccc4ccccc4c3)ccc(Cl)c2[nH]1 , output reported IC50.
output: 562

input: Input Cc1cc2c(OC[C@H](O)CN3CC4CC=CCC3CN4c3ccc4ccccc4c3)cccc2[nH]1 (stereo partly drawn) , output reported IC50.
output: 933

input: Input C1=C\C[C@H]2CN[C@@H](C/1)CN2c1cccc2ncccc12 , output reported IC50.
output: 2340
